Test protocol: Therapeutic index, ratio EC50 for human MRC5 SV2 cells to EC50 for Trypanosoma cruzi Tulahuen CL2 intracellular amastigotes
Format: toxicity, cell-based
Test settings: read-out: Ratio EC50
For each record, check the reported selectivity ratio: if it is below 60 write Criterion met, else write Criterion not met.

Would you please look over these solved cases?
>  <Molecule>
Nc1ncnc2c1c(-c1ccc(Cl)cc1)cn2[C@@H]1O[C@H](CO)[C@@H](O)[C@H]1O

>  <Classification>
Criterion met

$$$$
>  <Molecule>
Nc1ncnc2c1c(-c1ccccc1)cn2[C@@H]1O[C@H](CO)C[C@H]1O

>  <Classification>
Criterion met

$$$$
>  <Molecule>
COc1ccc(-c2cn([C@@H]3O[C@H](CO)C[C@H]3O)c3ncnc(N)c23)cc1

>  <Classification>
Criterion met

$$$$
>  <Molecule>
Cc1cc(-c2cn([C@@H]3O[C@H](CO)C[C@H]3O)c3ncnc(N)c23)ccc1Cl

>  <Classification>
Criterion not met

$$$$
>  <Molecule>
Nc1ncnc2c1c(-c1cccc(Cl)c1)cn2[C@@H]1O[C@H](CO)C[C@H]1O

>  <Classification>
Criterion met

$$$$
>  <Molecule>
Nc1ncnc2c1c(-c1cc(Cl)cc(Cl)c1)cn2[C@@H]1O[C@H](CO)C[C@H]1O

>  <Classification>
Criterion met

$$$$
>  <Molecule>
Nc1ncnc2c1c(-c1cccc(C(F)(F)F)c1)cn2[C@@H]1O[C@H](CO)C[C@H]1O

>  <Classification>
Criterion met

$$$$
>  <Molecule>
Nc1ncnc2c1c(-c1ccc(Cl)c(F)c1)cn2[C@@H]1O[C@H](CO)C[C@H]1O

>  <Classification>
Criterion not met

$$$$

Incoming: Determine if `CC(C)c1ccc(-c2cn([C@@H]3O[C@H](CO)C[C@H]3O)c3ncnc(N)c23)cc1` shows selectivity ratio strictly lower than 60.
Outgoing: Criterion met

Incoming: Could you please tell me whether selectivity ratio recorded for `Nc1ncnc2c1c(-c1ccc3ccccc3c1)cn2[C@@H]1O[C@H](CO)C[C@H]1O` is less than 60?
Outgoing: Criterion met

Incoming: Given `Nc1ncnc2c1c(-c1ccc(Cl)cc1Cl)cn2[C@@H]1O[C@H](CO)C[C@H]1O` , is recorded selectivity ratio strictly lower than 60?
Outgoing: Criterion met

Incoming: Threshold test, selectivity ratio < 60: `CCc1ccc(-c2cn([C@@H]3O[C@H](CO)C[C@H]3O)c3ncnc(N)c23)cc1`
Outgoing: Criterion met

----------
This listing pairs compounds with measured remaining at 1 h, 5 µM.
Test system: CYP450
Test protocol: Drug metabolism in mouse liver microsome S9 fraction assessed as CYP450-mediated metabolism by measuring compound remaining at 5 uM pretreated with NADPH and measured after 60 mins by UPLC-MS/MS analysis
Assay type: ADME, microsomes
Test settings: liver microsome S9 fraction, read-out: Stability
Give a bare numeral; the unit % is implied.

>  <Molecule>
Nc1ncnc2c1c(-c1ccc(Cl)cc1)cn2[C@@H]1O[C@H](CO)[C@@H](O)[C@H]1O

>  <Value kind>
remaining at 1 h, 5 µM

>  <Recorded result>
102

$$$$

The record that follows has no remaining at 1 h, 5 µM shown yet.
Incoming: Give the reported remaining at 1 h, 5 µM for this compound. `Nc1ncnc2c1c(-c1ccc(Cl)cc1)cn2[C@@H]1O[C@H](CO)C[C@H]1O`
Outgoing: 68

----------
A collection of molecules and their measured selectivity ratio
Test protocol: Therapeutic index, ratio EC50 for human MRC5 SV2 cells to EC50 for Trypanosoma cruzi Tulahuen CL2 intracellular amastigotes
Assay type: toxicity, cell-based
Test settings: read-out: Ratio EC50

Please review the following examples before continuing.
>  <Molecule>
Nc1ncnc2c1ncn2[C@@H]1O[C@H](CO)C[C@H]1O [CORDYCEPIN]

>  <selectivity ratio>
> 25

$$$$
>  <Molecule>
COc1ccc(-c2cn([C@@H]3O[C@H](CO)C[C@H]3O)c3ncnc(N)c23)cc1Cl

>  <selectivity ratio>
> 19

$$$$

Let's switch to this molecule now.
Incoming: State its selectivity ratio: `Nc1ncnc2c1c(-c1ccc(F)c(F)c1)cn2[C@@H]1O[C@H](CO)C[C@H]1O`
Outgoing: > 190

----------
Test protocol: Therapeutic index, ratio EC50 for human MRC5 SV2 cells to EC50 for Trypanosoma cruzi Tulahuen CL2 intracellular amastigotes
Type: toxicity, cell-based
Test settings: read-out: Ratio EC50
Form field: selectivity ratio (one value per entry).

>  <Molecule>
Nc1ncnc2c1c(-c1ccc([N+](=O)[O-])cc1)cn2[C@@H]1O[C@H](CO)C[C@H]1O

>  <Recorded result>
> 53

$$$$
>  <Molecule>
Cc1cccc(-c2cn([C@@H]3O[C@H](CO)C[C@H]3O)c3ncnc(N)c23)c1

>  <Recorded result>
> 12

$$$$
>  <Molecule>
Nc1ncnc2c1c(C1CCCCC1)cn2[C@@H]1O[C@H](CO)C[C@H]1O

>  <Recorded result>
> 3

$$$$
>  <Molecule>
Nc1ncnc2c1c(-c1ccc(C(F)(F)F)cc1)cn2[C@@H]1O[C@H](CO)C[C@H]1O

>  <Recorded result>
76

$$$$
>  <Molecule>
Nc1ncnc2c1c(-c1ccc(OC(F)(F)F)cc1)cn2[C@@H]1O[C@H](CO)C[C@H]1O

>  <Recorded result>
29

$$$$
>  <Molecule>
Nc1ncnc2c1c(-c1ccc(F)cc1)cn2[C@@H]1O[C@H](CO)C[C@H]1O

>  <Recorded result>
> 100

$$$$

Below: the item to evaluate.
Incoming: // fetch selectivity ratio given entry `Nc1ncnc2c1c(C1=CCCCC1)cn2[C@@H]1O[C@H](CO)C[C@H]1O`
Outgoing: > 2
